Catalogue of pKd values
- subject-of-test: alpha-PrP (human recombinant prion protein) (human, UniProt P04156 23-230)
- method-summary: fluorescence anisotropy; pH 7.2
pKd: −log10 of the molar value.

- binder: "NC-DNA (dsDNA) DNA 1: GACTTGTGGAAAATCTCTAGCAGTGCAT DNA 2: ATGCACTGCTAGAGATTTTCCACAAGTC"
  pKd: 5.89
- binder: "Lef-DNA (dsDNA) DNA 1: GAGCTTCAAAGGGTG DNA 2: CACCCTTTGAAGCTC"
  pKd: 5.24
- binder: "MNV (structured_RNA) RNA: GGGUUCAUAGCCUAUUCGGCUUUUAAAGGACCUUUUUCCCUCGCGUAGCUAGCUACGCGAGGUGACCCCCCGAAGGGGGGUGCCCC"
  pKd: 5.38
- binder: "RQT157 (RQ157) (structured_RNA) RNA: GGGGUUUCGAACCGGAAUUUGAGGGAUGCCUAGGCAUCCCCCGUGCGUCCCUUUACGAGGGAUUGUCGACUCUAGAGGAUCCGGUACCUGAGGGAUGCCUAGGCAUCCCCGCGCGCCGGUUUCGGACCUCCAGUGCGUGUUACCGCACUGUCGACCC"
  pKd: 5.54
- binder: "RQ11+12 (structured_RNA) RNA: GGGGUUUCCAACCGGAAUUUGAGGGAUGCCUAGGCAUCCCCCGUGCGUCCCUUUACGAGGGAUUGUCGACUCUAGUCGACGUCUGGGCGAAAAAUGUACGAGAGGACCUUUUCGGUACAGACGGUACCUGAGGGAUGCCUAGGCAUCCCCGCGCGCCGGUUUCGGACCUCCAGUGCGUGUUACCGCACUGUCGACCC"
  pKd: 5.66
